These entries and their values trace back to patent US8748624B2.

- subject_of_test: human glucagon receptor (GCGR) (Homo sapiens (Human), UniProt P47871)
- Sequence (P47871 26-477): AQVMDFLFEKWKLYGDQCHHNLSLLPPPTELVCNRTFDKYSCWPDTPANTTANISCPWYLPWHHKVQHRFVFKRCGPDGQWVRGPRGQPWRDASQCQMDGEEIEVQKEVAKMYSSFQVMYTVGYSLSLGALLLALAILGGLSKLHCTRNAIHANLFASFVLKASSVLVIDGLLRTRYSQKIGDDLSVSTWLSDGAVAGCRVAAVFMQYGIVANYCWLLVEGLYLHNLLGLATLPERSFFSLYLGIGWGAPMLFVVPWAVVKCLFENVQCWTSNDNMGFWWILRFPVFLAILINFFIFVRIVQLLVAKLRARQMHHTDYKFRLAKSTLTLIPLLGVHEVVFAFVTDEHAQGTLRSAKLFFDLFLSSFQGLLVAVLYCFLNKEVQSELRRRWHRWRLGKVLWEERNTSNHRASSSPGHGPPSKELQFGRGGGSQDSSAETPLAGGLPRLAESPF
- assay_notes: Inhibition of 125I-glucagon binding to membranes from HEK293 cells expressing the human glucagon receptor
- condition_parameters: membranes of hGluc-1 HEK cells, 125I-glucagon 0.3 nM, 2 hours room temperature; IC50 converted to Ki; average if tested more than once
measurement_type: Ki (nM)

>  <smiles_notation>
O=C(O)CCNC(=O)c1ccc(-c2cc(F)ccc2CNc2ccc(-c3ccc(Cl)cc3Cl)c(F)c2)cn1

>  <measurement_type>
Ki

>  <output_unit>
nM

>  <measured_number>
74.2

$$$$
>  <smiles_notation>
O=C(O)CCNC(=O)c1ccc(-c2cc(C(F)(F)F)ccc2CNc2ccc(-c3ccc(F)c(Cl)c3)c(Cl)c2)cn1

>  <measurement_type>
Ki

>  <output_unit>
nM

>  <measured_number>
14.4

$$$$
>  <smiles_notation>
Cc1cccc(-c2ccc(C(=O)NCCC(=O)O)nc2)c1CNc1ccc(-c2ccc(Cl)cc2)cc1

>  <measurement_type>
Ki

>  <output_unit>
nM

>  <measured_number>
139

$$$$
>  <smiles_notation>
CS(=O)(=O)c1ccc(CNc2ccc(-c3ccc(Cl)cc3)cc2)c(-c2ccc(C(=O)NCCC(=O)O)nc2)c1

>  <measurement_type>
Ki

>  <output_unit>
nM

>  <measured_number>
52.2

$$$$
>  <smiles_notation>
O=C(O)CCNC(=O)c1ccc(-c2cc(Cl)ccc2C(=O)Nc2ccc(-c3ccc(F)cc3)cc2)cn1

>  <measurement_type>
Ki

>  <output_unit>
nM

>  <measured_number>
61.4

$$$$
>  <smiles_notation>
O=C(O)CCNC(=O)c1ccc(-c2cc(C(F)(F)F)ccc2CNc2ccc(-c3cccc(C(F)(F)F)c3Cl)cc2)cn1

>  <measurement_type>
Ki

>  <output_unit>
nM

>  <measured_number>
20.4

$$$$
>  <smiles_notation>
O=C(O)CCNC(=O)c1ccc(-c2cc(Cl)ccc2CNc2ccc(-c3ccc(C(F)(F)F)cc3Cl)cc2)cn1

>  <measurement_type>
Ki

>  <output_unit>
nM

>  <measured_number>
15.7

$$$$
>  <smiles_notation>
O=C(O)CCNC(=O)c1ccc(-c2cc(C(F)(F)F)cc(Cl)c2CNc2ccc(-c3ccc(Cl)cc3)cc2)cn1

>  <measurement_type>
Ki

>  <output_unit>
nM

>  <measured_number>
18.8

$$$$

A = CC(C)(C)c1ccc(-c2ccc(NCc3ccc(Cl)cc3-c3ccc(C(=O)NCCC(=O)O)nc3)cc2)cc1
B = O=C(O)CCNC(=O)c1ccc(-c2cc(Cl)ccc2CNc2ccc(-c3ccc(Cl)c(Cl)c3)cc2)cn1
Asked: // pick larger Ki from pair: A vs B Write the label of whichever entry you select.
Given back: A

I = O=C(O)CCNC(=O)c1ccc(-c2cc(Cl)ccc2CNc2ccc(-c3ccc(Cl)cc3Cl)cc2)cn1
II = O=C(O)CCNC(=O)c1ccc(-c2cc(Cl)ccc2CNc2ccc(-c3ccc(Cl)c(F)c3)cc2F)cn1
Asked: // pick larger Ki from pair: I vs II Write the label of whichever entry you select.
Given back: II

I = O=C(O)CCNC(=O)c1ccc(-c2cc(F)c(F)cc2CNc2ccc(-c3cccc(C(F)(F)F)c3Cl)c(Cl)c2)cn1
II = O=C(O)CCNC(=O)c1ccc(-c2cc(F)c(F)cc2CNc2ccc(-c3ccc(Cl)cc3Cl)cc2)cn1
Asked: Looking only at measured Ki, which entry is lower, I or II ? Write the label of whichever entry you select.
Given back: I
